EC50 listing for selected compounds.
# target.or.system: Human full-length ERβ (Homo sapiens)
# Construct: expression vector encoding human full-length ERα or ERβ; expressed in transfected cells; host or cells: HEK293, transiently transfected
# Sequence (Q92731 whole entry): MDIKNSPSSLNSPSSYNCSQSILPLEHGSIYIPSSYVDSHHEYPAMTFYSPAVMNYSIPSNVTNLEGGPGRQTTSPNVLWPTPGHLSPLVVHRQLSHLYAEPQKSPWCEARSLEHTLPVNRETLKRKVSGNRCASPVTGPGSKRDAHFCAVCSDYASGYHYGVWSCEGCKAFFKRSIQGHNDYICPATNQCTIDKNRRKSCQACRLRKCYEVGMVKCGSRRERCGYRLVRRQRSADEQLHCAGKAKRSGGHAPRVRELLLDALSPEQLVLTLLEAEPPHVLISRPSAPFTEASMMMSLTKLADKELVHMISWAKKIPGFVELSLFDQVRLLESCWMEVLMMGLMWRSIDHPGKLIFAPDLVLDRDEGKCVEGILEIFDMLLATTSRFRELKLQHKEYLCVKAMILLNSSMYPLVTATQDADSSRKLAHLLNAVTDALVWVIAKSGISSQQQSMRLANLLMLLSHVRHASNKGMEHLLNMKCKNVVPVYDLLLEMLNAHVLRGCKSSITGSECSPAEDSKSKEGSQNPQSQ
# assay.explanation: ERβ cell-based luciferase reporter assay, agonist mode
# condition.label: Table 8, second library; read-out: ERβ agonism EC50

compound | EC50
CCCCCC[C@@H](O)C12CCC(c3ccc(O)cc3)(CC1)CC2 [Compound 29] | > 10 µM
CCCCCC[C@H](O)C12CCC(c3ccc(O)cc3)(CC1)CC2 [Compound 28] | 4.12 µM
CCCCCC[C@H](O)C1C2CC3CC1CC(c1ccc(O)cc1)(C3)C2 (some centres unmarked) [Compound 30] | > 10 µM
CCCCCC[C@H](O)c1ccc(-c2ccc(O)cc2)cc1 [Compound 26] | > 10 µM
CCCCCC[C@H](O)C1CCC(c2ccc(O)cc2)CC1 (some centres unmarked) [Compound 27] | > 10 µM
